# Test system: SK-MEL-2 melanoma
# test: NCI tumour cell line growth inhibition, 48 h; in the data active = GI50 below about 0.43 µM; inactive = the rest
Field 'call' accepts active, inactive

- compound: "CCc1ccc(Oc2c(-c3ccc(OCCc4cccc(C(F)(F)F)c4)cc3O)n[nH]c2C(F)(F)F)cc1"
  assigned-class: "inactive"

// switching to the query compound
q: In this assay, the call recorded for COc1ccc(-c2cc(=O)c3c(OC)c4ccoc4c(/C=C/C=O)c3o2)cc1 was what?
a: inactive

###

# Test system: NCI-H460 lung
# test: NCI tumour cell line growth inhibition, 48 h
measure: TGI

Known TGI results, listed for orientation:
- compound: "COC(=O)c1cc(/C=C/C(=O)Cc2ccccc2)cn1S(=O)(=O)c1ccccc1"
  TGI: "> 100 µM"
- compound: "O=C1c2cc3c(cc2[C@@H]2C(O)[C@H]4O[C@H]4C4CCN1C42)OCO3 (some centres undefined)"
  TGI: "> 37.5 µM"
- compound: "COc1ccccc1CNCCCN1C(=O)c2ccc3c4c(ccc(c24)C1=O)C(=O)N(CCCNCCCCNCCCN)C3=O"
  TGI: "1.5 µM"

Now examine the next entry.
q: // fetch TGI given entry COc1cccc(C(=O)NNc2nc(Cl)nc(N3CCN(C(c4ccccc4)c4ccccc4)CC3)n2)c1
a: 12 µM

###

# Test system: NCI-H460 lung
# test: NCI tumour cell line growth inhibition, 48 h
Collected TGI values appear next to each entry.
Give the value, in units of µM, as a plain number.

Known TGI results, listed for orientation:
- compound: "CC(C)=CCC/C(C)=C/Cc1c2c(c3oc(-c4ccc(O)c(O)c4)c(O)c(=O)c3c1O)C=CC(C)(C)O2"
  target-under-test: "NCI-H460 lung"
  unit-string: "µM"
  TGI: 10.9
- compound: "CCc1ccc(Oc2c(-c3ccc(OCCc4cccc(C(F)(F)F)c4)cc3O)n[nH]c2C(F)(F)F)cc1"
  target-under-test: "NCI-H460 lung"
  unit-string: "µM"
  TGI: 5.74
- compound: "Cn1cc(-c2csc(-c3ccccc3)n2)c2cccnc21"
  target-under-test: "NCI-H460 lung"
  unit-string: "µM"
  TGI: 31
- compound: "COc1cccc2nc(Nc3cccc(NC(=O)c4ccc(N5CCN(C)CC5)c(C(F)(F)F)c4)c3)ccc12"
  target-under-test: "NCI-H460 lung"
  unit-string: "µM"
  TGI: 1.98
- compound: "CC(C)(C)N1CC1CNC(=O)C(=O)NCC1CN1C(C)(C)C (stereo unspecified)"
  target-under-test: "NCI-H460 lung"
  unit-string: "µM"
  TGI: 24.7
- compound: "Clc1nc(Cl)c2ncn(-c3ccccc3)c2n1"
  target-under-test: "NCI-H460 lung"
  unit-string: "µM"
  TGI: 23.5
- compound: "Cc1ccc(C2=NN(c3ccc(S(=O)(=O)NC(=O)NCc4ccccc4)cc3)C(c3ccc(N(C)C)cc3)C2)c(C)c1 (stereo unspecified)"
  target-under-test: "NCI-H460 lung"
  unit-string: "µM"
  TGI: 10.4
- compound: "C=C(C)COc1ccc2c(c1)CCC1C2CCC2(C)C(=O)/C(=N/O)CC12 (stereo unspecified)"
  target-under-test: "NCI-H460 lung"
  unit-string: "µM"
  TGI: 3.14

Now examine the next entry.
q: // fetch TGI given entry CCCCCN1C(=O)C(Cc2ccccc2)N=C(c2ccc(O)cc2)c2cc(Cl)ccc21 (stereo unspecified)
a: 24.3
